- SYSTEM: AAV9 (adeno-associated virus serotype 9)
- ASSAY_SUMMARY: SPR, AAV on CM5 chip
READOUT_LABEL: pKd
Please report pKd as the negative decimal logarithm of the molar concentration, giving only the number.

Incoming: I would be grateful if you could share the reported pKd for A4-B1 (VHH) VQLQESGGGLVQPGGSLRLSCAASGSIFSINLMGWYRQAPGKQRELVATITRGGNTNYAGSVKGRFTISRDNAKNTVYLQMNSLRPEDTAVYYCHVDEVRQSSWTTSNLWGQGTQVTVSSGGGGSGGGGSGGGGSVQLQESGGGLVQPGGSLRLSCAASGSIFSINLMGWYRQAPGKQRELVATITRGGNTNYAGSVKGRFTISRDNAKNTVYLQMNSLRPEDTAVYYCHVDEVRQSSWTTSNLWGQGTQVTVSS .
Outgoing: 9.15
